In this section, each of the compounds is paired with its reported IC50.
Molecular target: NK-2 receptors (Rattus norvegicus)
Construct: Duodenums isolated from Fischer strain male rats were homogenized
Assay: Binding to NK-2 receptors (inhibition of radioactive 125I-neurokinin A binding)
Conditions: rat duodenum membrane; 125I-neurokinin A 1×10^-9 M; 90 min, room temperature; read-out: IC50 of drugs in binding of radioactive neurokinin A
Note to self: number, then unit, no commentary.

Consider the following illustrative entries.
COC(=O)N(C)c1c2c(nc3ccccc13)CCN(CCC(CN(C)C(=O)c1ccccc1)c1ccc(Cl)c(Cl)c1)C2 (single isomer, unassigned) [Example 43] :: 66 nM
CN(CC(CCN1CCc2nc3c(cc2C1)CCCC3)c1ccc(Cl)c(Cl)c1)C(=O)c1ccccc1 (single isomer, unassigned) [Example 25] :: 56 nM

## Task Suppose we examine the compound COC(=O)c1c2c(nc3ccccc13)CCN(CCC(CN(C)C(=O)c1ccccc1)c1ccc(Cl)c(Cl)c1)C2 (single isomer, unassigned) [Example 31] ; what IC50 value has been reported?
## Result 96 nM

---

The reader will find reported IC50 values listed item by item below.
Target: NK-2 receptors (Rattus norvegicus, UniProt P16610)
Construct: Duodenums isolated from Fischer strain male rats were homogenized
Sequence (P16610 whole entry): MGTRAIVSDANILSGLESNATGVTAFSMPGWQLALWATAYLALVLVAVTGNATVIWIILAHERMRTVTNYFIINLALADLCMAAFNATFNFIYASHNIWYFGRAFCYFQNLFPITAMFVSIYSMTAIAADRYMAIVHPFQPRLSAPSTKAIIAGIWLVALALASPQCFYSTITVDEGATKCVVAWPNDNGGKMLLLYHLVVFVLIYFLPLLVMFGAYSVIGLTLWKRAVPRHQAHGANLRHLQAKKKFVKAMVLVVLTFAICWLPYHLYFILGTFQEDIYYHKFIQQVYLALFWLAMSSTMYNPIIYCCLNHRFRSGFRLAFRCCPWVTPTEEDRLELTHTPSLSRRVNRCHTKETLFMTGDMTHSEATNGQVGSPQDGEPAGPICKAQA
Test: Binding to NK-2 receptors (inhibition of radioactive 125I-neurokinin A binding)
Details: rat duodenum membrane; 125I-neurokinin A 1×10^-9 M; 90 min, room temperature; read-out: IC50 of drugs in binding of radioactive neurokinin A
Form entry: value (nM) — number only.

CC(=O)Nc1c2c(nc3ccccc13)CCN(CCC(CN(C)C(=O)c1ccccc1)c1ccc(Cl)c(Cl)c1)C2 (single isomer, unassigned) [Example 27] :: 18
CN(CC(CCN1CCc2nc3ccccc3c(-c3ccccc3)c2C1)c1ccc(Cl)c(Cl)c1)C(=O)c1ccccc1 (single isomer, unassigned) [Example 39] :: 70
CN(CC(CCN1CCc2nc3ccccc3c(C(=O)O)c2C1)c1ccc(Cl)c(Cl)c1)C(=O)c1ccccc1 (single isomer, unassigned) [Example 33] :: 94

## Task // IC50 lookup, key: CN(CC(CCN1CCc2nc3ccccc3c(C(N)=O)c2C1)c1ccc(Cl)c(Cl)c1)C(=O)c1ccccc1 (single isomer, unassigned) [Example 29]
## Result 59

## Task Now the same for COC(=O)Nc1c2c(nc3ccccc13)CCN(CCC(CN(C)C(=O)c1ccccc1)c1ccc(Cl)c(Cl)c1)C2 (single isomer, unassigned) [Example 41]
## Result 30

## Task // same read-out, input: CN(CC(CCN1CCc2nc3ccccc3c(CO)c2C1)c1ccc(Cl)c(Cl)c1)C(=O)c1ccccc1 (single isomer, unassigned) [Example 37]
## Result 90

---

Biological target: NK-3 receptors (Cavia porcellus, UniProt P30098)
Construct: the ileums were isolated
Sequence (P30098 whole entry): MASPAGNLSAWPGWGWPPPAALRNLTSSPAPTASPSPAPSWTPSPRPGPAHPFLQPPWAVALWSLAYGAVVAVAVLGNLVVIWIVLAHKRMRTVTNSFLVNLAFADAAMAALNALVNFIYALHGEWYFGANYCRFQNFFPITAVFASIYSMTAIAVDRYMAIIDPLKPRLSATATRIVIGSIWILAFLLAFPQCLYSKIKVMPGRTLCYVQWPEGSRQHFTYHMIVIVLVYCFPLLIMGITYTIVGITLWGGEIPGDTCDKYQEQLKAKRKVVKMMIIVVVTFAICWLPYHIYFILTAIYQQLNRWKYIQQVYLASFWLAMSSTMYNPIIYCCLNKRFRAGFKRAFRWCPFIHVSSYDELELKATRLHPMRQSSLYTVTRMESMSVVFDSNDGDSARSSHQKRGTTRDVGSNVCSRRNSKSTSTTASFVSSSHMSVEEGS
Experiment: Antagonism for NK-3 receptors (senktide induced contraction of isolated ileum)
Details: guinea pig ileum; senctide 1×10^-9 M; 35 min incubation; read-out: IC50 of a drug on senctide induced contraction
measured-attribute: IC50 (nM)
API: value field is a number in nM; no unit string.

## Task Any idea what its IC50 is? The compound is CN(CC(CCN1CCc2nc3c(cc2C1)CCCC3)c1ccc(Cl)c(Cl)c1)C(=O)c1ccccc1 (single isomer, unassigned)
## Result 180

---

Biological target: NK-1 receptors (Cavia porcellus)
Construct: the ileums were isolated; from tissue; host or cells: isolated ileum of male Hartley guinea pigs
Sequence (P30547 whole entry): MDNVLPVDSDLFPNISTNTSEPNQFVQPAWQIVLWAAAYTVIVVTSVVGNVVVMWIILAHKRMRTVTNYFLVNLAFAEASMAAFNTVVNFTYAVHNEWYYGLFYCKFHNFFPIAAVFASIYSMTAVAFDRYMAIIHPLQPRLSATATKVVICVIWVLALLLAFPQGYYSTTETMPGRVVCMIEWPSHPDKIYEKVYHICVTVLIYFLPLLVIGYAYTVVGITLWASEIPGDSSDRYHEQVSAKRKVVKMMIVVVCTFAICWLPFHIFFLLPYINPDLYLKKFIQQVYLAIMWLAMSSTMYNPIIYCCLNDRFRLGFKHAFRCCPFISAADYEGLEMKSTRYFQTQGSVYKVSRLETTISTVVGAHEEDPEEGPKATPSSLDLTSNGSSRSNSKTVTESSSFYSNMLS
Assay: Antagonism for NK-1 receptor (methylsubstance P induced contraction of isolated ileum)
Assay type: cell-based, Hartley strain male guinea pigs
Settings: guinea pig ileum; methylsubstance P 1×10^-9 M; 35 min incubation; read-out: IC50 of a drug on methylsubstance P induced contraction
Method: Hartley strain male guinea pigs were killed by a blow on the head and blood-letting, and the ileums were isolated. A specimen of about 3 cm in length was prepared and then suspended at a tension of 0.5 gw in a 15 magunus bath with an internal volume of 15 ml containing Krebs-Henseleit solution of 37° C. while introducing a mixed gas of 95% O2 +5% CO2 into the bath. […]
measured-attribute: pIC50
// field semantics: pIC50 = negative decimal log of concentration (mol/L)

## Task // pIC50 lookup, key: CN(CC(CCN1CCc2nc3c(cc2C1)CCCC3)c1ccc(Cl)c(Cl)c1)C(=O)c1ccccc1 (single isomer, unassigned)
## Result 6.33
